Measured inhibition by item
assay: inhibitors of TNFa-induced NFkB p65 translocation, primary screen, imaging, HUVEC, MLSMR starter and 10KST1 sets (AID 438); conditions: HUVEC TNFa-induced p65 nuclear translocation; at 2 µM, stronger effect = higher value, 0% TNFa-plus-vehicle, 100% no-TNFa wells;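 further: compound added about 3h40 before a 20 min TNFalpha stimulation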;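 on inhibition: signal is the nuclear over cytoplasmic p65 intensity ratio per well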
Answer format: numeric, % implied, no suffix.

Reported inhibition, compound "COc1ccc(OC)c(-c2nnc(SCC(=O)NC3CCCCC3)o2)c1" : ____ 2.1

Reported inhibition, compound CC(=O)C1=C(C)Nc2ncnn2C1c1cccc(OCc2ccccc2)c1 (stereo unspecified) : ____ 0

----------
target: Voltage-gated potassium channel subunit beta-2 (Rattus norvegicus) (UniProt P62483); assay: enhancers of rat Kvbeta2 NADPH turnover – biochemical, NADPH fluorescence, primary screen (AID 623); conditions: Recombinant KvBeta, NADPH fluorescence decrease slope, 10 min; at 10 µM; stronger effect = lower value;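 further: fluorescence intensity change per second fitted from 20 to 320 s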
Sequence (P62483 whole entry, looked up): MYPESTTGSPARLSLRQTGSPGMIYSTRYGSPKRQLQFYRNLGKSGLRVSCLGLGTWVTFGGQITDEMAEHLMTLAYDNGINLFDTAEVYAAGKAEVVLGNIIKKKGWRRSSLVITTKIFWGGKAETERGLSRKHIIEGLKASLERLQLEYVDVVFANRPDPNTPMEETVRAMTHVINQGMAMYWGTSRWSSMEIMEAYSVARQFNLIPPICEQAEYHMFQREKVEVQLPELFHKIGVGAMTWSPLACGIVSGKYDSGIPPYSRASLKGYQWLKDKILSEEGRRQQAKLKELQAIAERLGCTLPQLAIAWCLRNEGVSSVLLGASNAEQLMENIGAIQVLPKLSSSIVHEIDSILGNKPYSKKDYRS
readout: NADPH fluorescence slope
Answer as a number with no unit attached.

Example entries and their recorded answers appear below.
molecule: Cc1cc(Cl)cc2c1NC(=O)[C@]21[C@@H]2C(=O)N(Cc3ccccc3)C(=O)[C@@H]2[C@@H]2CCCN21
assayed target: Voltage-gated potassium channel subunit beta-2 (Rattus norvegicus) (UniProt P62483)
NADPH fluorescence slope: -3.2e-05
--
molecule: Cc1c(C(=O)N2CCOCC2)oc2ccc(S(=O)(=O)N3CCCC3)cc12
assayed target: Voltage-gated potassium channel subunit beta-2 (Rattus norvegicus) (UniProt P62483)
NADPH fluorescence slope: -7.1e-05
--
molecule: CC12COC3(C(=O)Nc4ccc(Cl)cn4)CC1CCC32C (stereo not given)
assayed target: Voltage-gated potassium channel subunit beta-2 (Rattus norvegicus) (UniProt P62483)
NADPH fluorescence slope: -5.6e-05

Let us move to another entry and its NADPH fluorescence slope.
Reported NADPH fluorescence slope, molecule "CCOc1ccc(-c2nc(C#N)c(N3CCN(C)CC3)o2)cc1" : ____ -1.8e-05

----------
test: reduction of polyQ htt aggregates in cells – imaging, exon1htt(103Q)mCFP cells, high-content imaging, primary screen (AID 483); conditions: exon1htt(103Q)mCFP cell line, aggregate imaging, at 2 µM; measured here: cell count, toxicity;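 further: compound exposure lasted 3 days before fixation; percent of the per-plate median nuclei count of sample wells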
readout: nuclei count (%)
Answer format: numeric, % implied, no suffix.

compound: Cc1ccccc1CSc1nnc(C)c(=O)[nH]1
nuclei count / %: 105
//
compound: Cn1c(=O)c2c(nc(NCCCO)n2CCc2ccccc2)n(C)c1=O
nuclei count / %: 105
//
compound: O=C(COC(=O)C1CC2C=CC1C2)Nc1ccc2c(c1)OC(F)(F)O2 (stereo unspecified)
nuclei count / %: 89.2
//
compound: O=C(c1ccc(-c2ccccc2)cc1)N1CCC(C(=O)N2CCCC2)CC1
nuclei count / %: 91.7
//
compound: CCn1c(SCC(=O)Nc2ccc(Cl)cc2)nnc1C1CC1
nuclei count / %: 127

Let us move to another entry and its nuclei count.
Reported nuclei count, compound "CCOC(=O)c1cc2sc(C)cc2n1CC(=O)NCc1ccc(F)cc1" : ____ 98.7

----------
Measured NADPH fluorescence slope by item
biological target: Voltage-gated potassium channel subunit beta-2 (Rattus norvegicus); test: enhancers of rat Kvbeta2 NADPH turnover – biochemical, NADPH fluorescence, primary screen (AID 623); settings: Recombinant KvBeta, NADPH fluorescence decrease slope, 10 min; at 10 µM; stronger effect = lower value;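 further: fluorescence intensity change per second fitted from 20 to 320 s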
Answer as a number with no unit attached.

Example entries and their recorded answers appear below.
molecule: Cc1ccc(C(=O)CC2(O)C(=O)N(CN3CCOCC3)c3ccccc32)cc1 (stereo unspecified)
assayed target: Voltage-gated potassium channel subunit beta-2 (Rattus norvegicus)
readout: NADPH fluorescence slope
measurement: 8.1e-06

molecule: CCc1nnc(NC(=O)CN2CCN(c3ccccc3OC)CC2)s1
assayed target: Voltage-gated potassium channel subunit beta-2 (Rattus norvegicus)
readout: NADPH fluorescence slope
measurement: -2e-05

molecule: CCOC(=O)Cn1c(=N)n(CCOc2cccc(C)c2)c2ccccc21
assayed target: Voltage-gated potassium channel subunit beta-2 (Rattus norvegicus)
readout: NADPH fluorescence slope
measurement: 2e-05

Reported NADPH fluorescence slope, molecule "COc1cccc(N2CCN(CC(=O)Nc3nnc(-c4ccccc4)s3)CC2)c1" : ____ 8.2e-07

Reported NADPH fluorescence slope, molecule "c1ccc(N2CCN(Cc3ccnc4ccccc34)CC2)cc1" : ____ -3.9e-05

Reported NADPH fluorescence slope, molecule "O=S(=O)(c1cccc(-c2nnco2)c1)N1CCCC1" : ____ -4.3e-05

Reported NADPH fluorescence slope, molecule "CC(C)(C)C(=O)CCN1C(=O)C2(OCCO2)c2ccccc21" : ____ -2.7e-05

Reported NADPH fluorescence slope, molecule "COC(=O)Nc1sc2c(c1C(N)=O)CCCCCC2" : ____ -5.2e-05

Reported NADPH fluorescence slope, molecule "Cc1ccc(-c2noc(CN3CCN(c4ccccc4F)CC3)n2)cc1" : ____ -3.7e-05

Reported NADPH fluorescence slope, molecule "CN1CCN(C(=O)C2CCN(S(=O)(=O)c3ccc4c(c3)oc(=O)n4C)CC2)CC1" : ____ -2.4e-05

Reported NADPH fluorescence slope, molecule "COc1ccc(-n2c(SCC#N)nc3ccccc3c2=O)cc1" : ____ 7e-05

----------
assay: inhibitors of TNFa-induced NFkB p65 translocation, primary screen, imaging, HUVEC, MLSMR starter and 10KST1 sets (AID 438); details: HUVEC TNFa-induced p65 nuclear translocation; measured here: nuclei count (cytotoxicity indicator), at 2.08 µM;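 further: compound added about 3h40 before a 20 min TNFalpha stimulation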
Measured cell count by item
Answer as a number with no unit attached.

Example entries and their recorded answers appear below.
molecule: COc1cccc(-n2c(SCC(=O)N3CCCC3)nc3c([nH]c4ccccc43)c2=O)c1
readout: cell count
measurement: 493
//
molecule: O=C(Nn1cnnc1)C1Cc2ccccc2CN1S(=O)(=O)c1ccc(F)cc1 (stereo unspecified)
readout: cell count
measurement: 326
//
molecule: Cc1ccc(CCNC(=O)C2CCN(S(=O)(=O)c3c(C)nn(C)c3C)CC2)cc1
readout: cell count
measurement: 621
//
molecule: COc1ccc(OC)c(Nc2nc(-c3sc(N)nc3C)cs2)c1
readout: cell count
measurement: 715
//
molecule: Cc1c(C(=O)N2CCN(c3ccccc3)CC2)sc2ncnc(N3CCN(c4ccccc4)CC3)c12
readout: cell count
measurement: 613
//
molecule: O=C(O)c1cc2nc(-c3ccc(F)cc3)cc(C(F)(F)F)n2n1
readout: cell count
measurement: 435
//
molecule: Cc1nc2ccc(Br)cn2c1NC(C)(C)C
readout: cell count
measurement: 209
//
molecule: Cc1cccc(NC(=O)c2ccc3ccccc3n2)n1
readout: cell count
measurement: 408
//
molecule: O=C(O)CCC(=O)c1c[nH]c2ccccc12
readout: cell count
measurement: 458
//
molecule: COCCn1c(CN2CCN(c3cccc(Cl)c3)CC2)nc2c1c(=O)n(C)c(=O)n2C
readout: cell count
measurement: 712

Reported cell count, molecule CN(C)CCCN1C(=O)C(=O)/C(=C(/O)c2ccncc2)C1c1cccc(Br)c1 (stereo unspecified) : ____ 245

----------
experiment: blockers of RIG-like receptor reporter activation – cell-based, Sendai virus stimulus, luciferase, 10K MLSCN set, TLR/RLR signaling modifier project, primary screen (AID 602276); conditions: HEK293 RL24 IRF3 luciferase reporter, at 10 µM, stronger effect = higher value;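 further: firefly luciferase from ISG56 promoter only with Renilla not read in this screen; 0% = Sendai virus plus DMSO and 100% = medium plus DMSO without virus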
readout: inhibition (%)
Answer format: numeric, % implied, no suffix.

Example entries and their recorded answers appear below.
compound: CC(C)Cn1c(CN2CCCCC2C)nc2c1c(=O)n(C)c(=O)n2C (stereo not given)
unit spec: %
inhibition: 2.69

compound: O=C(CSc1nnc(COc2ccc(Cl)cc2)o1)OC1CCCCC1
unit spec: %
inhibition: 1.22

compound: CC(=O)NCCc1nc2ccccc2[nH]1
unit spec: %
inhibition: 12.7

compound: O=C1c2ccccc2C(=O)N1CCCCN1CCN(CCCCN2C(=O)c3ccccc3C2=O)CC1
unit spec: %
inhibition: 14.1

compound: CC(=O)c1c(C)nn(C(C)CC(=O)O)c1C (stereo not given)
unit spec: %
inhibition: 8.2

compound: CCOC(=O)N1CCN(c2cc(=O)n(-c3ccccc3Cl)c(=O)[nH]2)CC1
unit spec: %
inhibition: -11.4

Let us move to another entry and its inhibition.
Reported inhibition, compound COCCOC(=O)C1=C(C)NC(=O)CC1c1cc2c(cc1Br)OCO2 (stereo not given) : ____ 17.3

----------
Measured fluorescence slope by item
biological target: Voltage-gated potassium channel subunit beta-2 (Rattus norvegicus); experiment: inhibitors of rat Kvbeta2 reductase activity – biochemical, NADPH fluorescence, primary screen (AID 622); conditions: recombinant KvBeta, 4-cyanobenzaldehyde reduction, at 10 µM, stronger effect = higher value;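 further: slope of raw intensity against log time taken from 70 to 1610 s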
Activity calls are given as the source filed them.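 Rule for the calls: active = fluorescence slope higher than the sample average by over 3 SD (cut at about -0.22 in these data, passing the limit was not always enough); inactive = the rest.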

Example entries and their recorded answers appear below.
compound: O=c1c2[nH]c3ccccc3c2ncn1CCCn1ccnc1
fluorescence slope: -0.42 (inactive)
//
compound: COC(=O)c1ccc(CSc2nc3c(cnn3-c3ccc(F)cc3)c(=O)[nH]2)o1
fluorescence slope: -0.545 (inactive)
//
compound: CC1CN(S(=O)(=O)c2ccc(Cl)c(C(F)(F)F)c2)CC(C)O1 (stereo not drawn)
fluorescence slope: -0.31 (inactive)

Reported fluorescence slope, compound CC(C)CC(c1nnnn1CC1CCCO1)N1CCN(Cc2ccc3c(c2)OCO3)CC1 (stereo not drawn) : ____ -0.472 (inactive)

Reported fluorescence slope, compound "COc1cc2c(=O)n(Cc3ccccc3)c(=O)n(CC(=O)NCc3ccco3)c2cc1OC" : ____ -0.37 (inactive)

Reported fluorescence slope, compound "C=CCn1c(SCC(=O)O)nnc1-c1cccc(Cl)c1" : ____ -0.453 (inactive)

Reported fluorescence slope, compound "CCOC(=O)CN1C(=O)C2(OCCCO2)c2ccccc21" : ____ -0.454 (inactive)

Reported fluorescence slope, compound "CSc1nc2ccccc2c(=O)n1N" : ____ -0.404 (inactive)

Reported fluorescence slope, compound CCOC(=O)C(NC(=O)OC(C)C)(Nc1nccs1)C(F)(F)F (stereo not drawn) : ____ -0.608 (inactive)

Reported fluorescence slope, compound "CC1CCN(Cc2nc3c(c(=O)n(C)c(=O)n3C)n2Cc2cccc3ccccc23)CC1" : ____ -0.427 (inactive)

Reported fluorescence slope, compound COc1cccc(C2C(C(N)=O)=C(C)Nc3nc(CCCO)nn32)c1OC (stereo not drawn) : ____ -0.455 (inactive)

Reported fluorescence slope, compound "O=C(Nc1ccc2c(c1)OCO2)OCc1ccccc1" : ____ -0.439 (inactive)
